In this section we review reported IC50, inhibitory potency (Src kinase assay, polyE4Y phosphorylation) values for a set of binders.
# system.tested: Src tyrosine kinase
# experiment.summary: cell-based or functional assay
Where no end group is shown, it is not given here. [ ]: non-standard residue; d: D form. pY = N[C@@H](Cc1ccc(OP(=O)(O)O)cc1)C(=O)O; Phe(4-Cl) = N[C@@H](Cc1ccc(Cl)cc1)C(=O)O; Phe(NO2) = nitrophenylalanine
measurement.name: IC50, inhibitory potency (Src kinase assay, polyE4Y phosphorylation) (µM)

[[record]]
binder = "IYKYY [IYKYY (81)]"
limit_qualifier = "="
numeric_value = 211

[[record]]
binder = "Ac-CI[Phe(NO2)]K[Phe(NO2)]Y [Ac-CIF(NO2)KF(NO2)Y (69)]"
limit_qualifier = "="
numeric_value = 1.4

[[record]]
binder = "Ac-CYK[pY]Y [Ac-CYKpYY (84)]"
limit_qualifier = ">"
numeric_value = 100

[[record]]
binder = "Ac-CI[Phe(NO2)]KY[Phe(NO2)] [Ac-CIF(NO2)KYF(NO2) (71)]"
limit_qualifier = "="
numeric_value = 3.4

[[record]]
binder = "Ac-CIYKY [Ac-CIYKY (82)]"
limit_qualifier = ">"
numeric_value = 100

[[record]]
binder = "Ac-CYK[Phe(4-Cl)]Y [Ac-CYKF(4-C1)Y (83)]"
limit_qualifier = "="
numeric_value = 39

[[record]]
binder = "Ac-CIYK[Phe(NO2)]YF [Ac-CIYKF(NO2)YF (65)]"
limit_qualifier = "="
numeric_value = 1

[[record]]
binder = "Ac-CIYK[Phe(NO2)][Phe(NO2)] [Ac-CIYKF(NO2)F(NO2) (70)]"
limit_qualifier = "="
numeric_value = 5.6

